- PROCEDURE_SUMMARY: Nrf2 qHTS screen for inhibitors: counterscreen for cytotoxicity; note: potency is the fitted concentration of half-maximal effect
- CONDITION_INFO: A549 ARE-Fluc cells, CellTiter-Fluor viability, 18-24 h; series mostly up to 46 µM
The campaign covered roughly 390,000 compounds. About 610 (0.16%) were called active. About 4% were inconclusive and are not listed. This is one part of a sample in which actives are shown more often than they occur.
MEASURED_QUANTITY: Potency

Illustrative cases are given below, each with its answer.
{"COMPOUND": "Cc1cc(Nc2cccc(C(F)(F)F)c2)nc2ccc(NC(=O)c3ccc(=O)[nH]c3)cc12", "MEASURED_QUANTITY": "Potency", "MEASURED": "inactive"}
{"COMPOUND": "Cc1onc(-c2ccc(F)cc2F)c1C(=O)Nc1cccc(C(F)(F)F)c1", "MEASURED_QUANTITY": "Potency", "MEASURED": "inactive"}
{"COMPOUND": "CC1(C)CCc2cc(S(=O)(=O)N3CCN(c4nc(-c5cccs5)nc5ccccc45)CC3)ccc2O1", "MEASURED_QUANTITY": "Potency", "MEASURED": "inactive"}
{"COMPOUND": "COc1ccc(C2Nc3cccc(OC)c3C(=O)N2Cc2ccccc2)cc1COc1ccc(NC(C)=O)cc1 (stereo not given)", "MEASURED_QUANTITY": "Potency", "MEASURED": "inactive"}
{"COMPOUND": "COC(=O)C(CC(C)C)NS(=O)(=O)c1cc(Br)ccc1Br (stereo not given)", "MEASURED_QUANTITY": "Potency", "MEASURED": "inactive"}

Exam item: Item under review: "CCOC(=O)C1CCN(c2ncnc3c2c(-c2ccccc2)cn3-c2cccc(C)c2)CC1" . Reported Potency?
Marked response: inactive

Exam item: Any idea what its Potency is? The compound is "O=[S+]([O-])(c1ccc(OC(F)(F)F)cc1)N1CCN([S+](=O)([O-])c2ccc3c(c2)OCCO3)CC1"
Marked response: inactive

Exam item: Name the recorded Potency for "CC(C)c1ccc(NC(=O)Cn2c3ncccc3c(=O)n2-c2ccccc2)cc1" .
Marked response: inactive

Exam item: For "CC(=O)Nc1cc(C(=O)NCc2ccc(F)cc2)ccc1Sc1ccc(F)cc1" , what is its reported Potency?
Marked response: inactive

Exam item: What value of measured Potency is listed for "COc1ccc(-c2ccc3ncnc(NCc4cccs4)c3c2)cc1OC" ?
Marked response: inactive

Exam item: Requested field: Potency. Item: COc1ccc(-c2ccc(C3C4C=CCCC4(C)C(=O)N3Cc3ccccc3)c(F)c2)cc1OC (stereo not given)
Marked response: inactive

Exam item: For the compound C=C1CCN(C(CC(C)C)C(=O)NCc2cc(OC)c(OC)c(OC)c2)S(=O)(=O)c2ccccc21 (stereo not given) , what Potency is on record?
Marked response: inactive

Exam item: Endpoint output: Potency of "N#CN1CCC(NC(=O)c2ccc(F)cc2)CC1" . Value?
Marked response: inactive

Exam item: Could you tell me which Potency is on file for "O=C(/C=C/c1ccc([N+](=O)[O-])o1)NNC(=O)c1ccc(F)cc1" ?
Marked response: 14.6 µM (active)

Exam item: Name the recorded Potency for COc1ccc(C(CCN2CCOCC2)c2c(OC)cc(OC)c3c2OC(=O)CC3c2ccc(OC)cc2)cc1 (stereo not given) .
Marked response: inactive

Exam item: Look up Potency: "COc1ccc(CN(Cc2ccccc2)C(=O)c2ccc(O)cc2)cc1COc1ccc(NC(C)=O)cc1"
Marked response: inactive

Exam item: Looking for the measured Potency of Oc1ccc(Cl)cc1C1C=C(c2ccc3c(c2)OCO3)NC(c2ccc(F)c(Br)c2)N1 (stereo not given) , can you help?
Marked response: inactive

* * *

- PROCEDURE_SUMMARY: Nrf2 qHTS screen for inhibitors: counterscreen for cytotoxicity
- CONDITION_INFO: A549 ARE-Fluc cells, CellTiter-Fluor viability, 18-24 h; series mostly up to 46 µM
Out of some 390,000 compounds screened, about 610 (0.16%) were called active. About 4% were inconclusive and are not listed. Calls follow the shape of the dose curve; as a rule, active = well fitted inhibition curve with a large enough effect; inconclusive = small, poorly fitted or top-dose-only effect, or effect the other way, or another doubt; inactive = no such curve, though single readings can be large or run the other way. This excerpt belongs to a sample that is enriched for actives.
The reply should name one outcome from Y for active, N for inactive

{"COMPOUND": "COC(=O)c1ccc(OC)c(Cn2c(=O)n(Cc3ccccc3)c(=O)c3c2c2cc(OC)ccc2n3C)c1", "ANSWER_LABEL": "N"}

Exam item: Hi team, can someone confirm the assay call for "CCOC(=O)c1c(C)[nH]c2c1-c1ccccc1C(=O)C2=O" ?
Marked response: Y

Exam item: What classification did "CCOC(=O)c1c(C)[nH]c(C)c1S(=O)(=O)N(C)CC(=O)N1CCN(c2ccccc2)CC1" end up with in this test?
Marked response: N

Exam item: Short answer needed: outcome of this test for "O=C(NCc1ccccn1)[C@]1(C(F)(F)F)C[C@H](CCc2ccccc2)CCCO1" ?
Marked response: N

Exam item: Recorded test outcome, item "Cc1ccc(Nc2c(-c3ccc(N(C)C)cc3)nc3nc[nH]n23)cc1"
Marked response: N

Exam item: For "COc1ccc(-c2nc(=N)sn2-c2ccccc2)cc1" , what call appears in the results of this test?
Marked response: N

* * *

- PROCEDURE_SUMMARY: Nrf2 qHTS screen for inhibitors: counterscreen for cytotoxicity
- CONDITION_INFO: A549 ARE-Fluc cells, CellTiter-Fluor viability, 18-24 h; series mostly up to 46 µM
Among all 390,000 compounds or so, about 610 (0.16%) were called active. Inconclusive results (about 4%) are left out. Calls follow the shape of the dose curve; as a rule, active = well fitted inhibition curve with a large enough effect; inconclusive = small, poorly fitted or top-dose-only effect, or effect the other way, or another doubt; inactive = no such curve, though single readings can be large or run the other way. The entries come from a sample that favours actives as a whole.
Select the correct class. Options are active, inactive and nothing else.

Would you please look over these solved cases?
{"MOLECULE": "Cc1ccc(NC(=S)N2CCN(c3ncccn3)CC2)cc1C", "ANSWER_LABEL": "inactive"}
{"MOLECULE": "Cc1cc2c(s1)c1cnn(Cc3cc(F)c(Cl)cc3Cl)c(=O)c1n2C", "ANSWER_LABEL": "inactive"}
{"MOLECULE": "O=C1C[C@@H](c2ccc3ccccc3c2)N1S(=O)(=O)c1ccccc1[N+](=O)[O-]", "ANSWER_LABEL": "inactive"}
{"MOLECULE": "CCOc1ccc(N=Cc2c(O)n(-c3cccc(C)n3)c(=O)c3ccccc23)cc1", "ANSWER_LABEL": "active"}
{"MOLECULE": "Cc1cc(C)c(NC(=O)Cn2c(SCC(=O)NCc3ccccc3)nc3ccccc32)c(C)c1", "ANSWER_LABEL": "inactive"}

Exam item: Assay result, entry "Cc1noc(C)c1-c1ccc2ncnc(NCc3ccc4[nH]ccc4c3)c2c1" — outcome?
Marked response: inactive

Exam item: Per the records of this test, what outcome belongs to "Cc1ccc(CNc2ncnc3cc(-c4ccc5c(c4)OCO5)ccc23)o1" ?
Marked response: inactive

Exam item: Kindly provide the recorded test outcome for the following molecule: O=C(CNC(=O)c1ccc(Cl)cc1Cl)OC(C(=O)Nc1cc(C(F)(F)F)ccc1Cl)c1ccccc1 (stereo not given)
Marked response: inactive

Exam item: So what was the verdict on "COC(=O)Cc1csc(/N=C/c2c(O)n(-c3cccc(C(F)(F)F)c3)c(=O)c3ccccc23)n1" in this test?
Marked response: inactive

Exam item: Field: outcome | Entry: "Cc1cc(NS(=O)(=O)c2ccc3oc(=O)c4ncn(C)c4c3c2)ccc1Br"
Marked response: inactive

* * *

- PROCEDURE_SUMMARY: Nrf2 qHTS screen for inhibitors: counterscreen for cytotoxicity; note: potency is the fitted concentration of half-maximal effect
- CONDITION_INFO: A549 ARE-Fluc cells, CellTiter-Fluor viability, 18-24 h; series mostly up to 46 µM
Among all 390,000 compounds or so, about 610 (0.16%) were called active. Another 4% or so got no clear call; they are omitted. The list comes from a sample in which actives are over-represented; it also holds close analogues and randomly drawn compounds.
MEASURED_QUANTITY: Potency

Here is how some compounds turned out for Potency.
{"COMPOUND": "COCC(C)NCc1cc(Br)ccc1OC (stereo not drawn)", "MEASURED": "inactive"}
{"COMPOUND": "CCCS(=O)(=O)N1CCC(n2c(C(F)(F)F)nc3cccnc32)CC1", "MEASURED": "inactive"}
{"COMPOUND": "COC(=O)CCc1ccccc1S(=O)(=O)N(CCC(=O)OC)Cc1ccccc1", "MEASURED": "inactive"}
{"COMPOUND": "O=C1Nc2ccc(Br)cc2/C1=N/N=C/C1=C(N2CCOCC2)C(=C\\c2ccccc2)/CC1", "MEASURED": "18.4 µM (active)"}
{"COMPOUND": "O=C(c1ccc2c(=O)n(Cc3ccco3)c(=S)[nH]c2c1)N1CCCC1", "MEASURED": "inactive"}
{"COMPOUND": "Cc1oc2c(c1C(=O)N1CCOCC1)C(=O)c1ccccc1C2=O", "MEASURED": "16.4 µM (active)"}
{"COMPOUND": "COc1ccc2c(c1OC)C(=O)OC2Nc1nc(-c2ccccc2)cs1 (stereo not drawn)", "MEASURED": "20.6 µM (active)"}
{"COMPOUND": "COc1ccccc1CNc1ccc(-c2nc(-c3ccccc3C)no2)cc1[N+](=O)[O-]", "MEASURED": "inactive"}

Exam item: Could you tell me which Potency is on file for "Cc1c(C=O)n(C)n(-c2ccccc2)c1=O" ?
Marked response: inactive

Exam item: Name the recorded Potency for "O=S(=O)(c1cccc(C(F)(F)F)c1)N1CCN(c2nc(-c3cccs3)nc3ccccc23)CC1" .
Marked response: inactive

Exam item: Param item = "O=C1CCc2cc(S(=O)(=O)Nc3cccc(Oc4ccccc4)c3)ccc2N1" ; retrieve measured Potency.
Marked response: inactive

Exam item: Using the record for "Cc1ccc(-c2nnc3ccc(SCC(N)=O)nn23)cc1" , report its Potency.
Marked response: inactive

Exam item: Which Potency value is on record for "COc1ccc2c(CNCCc3ccccc3C)c(C(=O)O)n(Cc3ccccc3C)c2c1" ?
Marked response: inactive
